Reference for the values: paper PMC4999892

α-Helix content values by entry
Bridges are numbered along the chain shown (N, C = ends). Where no end group is shown, it is not given here.
Record the value in %, omitting the unit from your answer.

polymer sequence	α-Helix content (%)
DFKSGKFKGGCMAWSGEKCRRLCKEQGAVSGHCSSNFKCWCEM (disulfide 11-33, 19-39, 23-41 (inferred)) [DtDRS-11]	21
RDFLSGTFGGPCWAWSGEKCRRLCIEEGHVSGHCSGAMKCWCEG (disulfide 12-34, 20-40, 24-42 (inferred)) [DRS-3-WDB]	19

Lab note: measured α-Helix content of DFLSGKFKGGCMMWSGEKCRRLCKEQGAVSGHCSTNFKCWCEE (disulfide 11-33, 19-39, 23-41 (inferred)) [DtDRS-11d] was 18
